system: normal primary NK cells, pool 1 (3 donors) (IL-2 2.5 ng/mL); assay: percent inhibition of viability; higher = more inhibition; details: 72 h; 1000 nM
measure: percent inhibition of viability
Entry format: amount then unit.

{"columns": ["compound", "percent inhibition of viability"],
 "data": [
  ["O=C(Nc1cccc(Nc2ncc(Br)c(NCCc3cnc[nH]3)n2)c1)N1CCCC1 [BX-912] (max concentration tested 10000 nM)", "24.1%"]
]}

Ask: Please look up its percent inhibition of viability: CNC(=O)CN1CCC(Oc2cc3c(Nc4cccc(Cl)c4F)ncnc3cc2OC)CC1 [Sapitinib] (max concentration tested 1000 nM)
Result: 4.72%

Ask: Follow-up entry: CN(C)C1CCN(C(=O)c2ccc(NC(=O)Nc3ccc(-c4nc(N5CCOCC5)nc(N5CCOCC5)n4)cc3)cc2)CC1 [Gedatolisib] (max concentration tested 1000 nM)
Result: 24.4%

Ask: Follow-up entry: C[C@]1(O)C[C@@H](c2nc(-c3ccc4ccc(-c5ccccc5)nc4c3)c3c(N)nccn32)C1 [Linsitinib] (max concentration tested 10000 nM)
Result: -7.33%

Ask: Follow-up entry: Cc1cc(C)c(/C=C2\C(=O)Nc3ccccc32)[nH]1 [Semaxanib] (max concentration tested 10000 nM)
Result: -9.25%

Ask: Follow-up entry: Clc1ccc(C(c2ccccc2Cl)C(Cl)Cl)cc1 (stereo unspecified) [Mitotane] (max concentration tested 10000 nM)
Result: -1.23%

###

tested on: normal primary NK cells, pool 1 (3 donors) (IL-2 2.5 ng/mL); experiment: percent inhibition of viability; higher = more inhibition; conditions: 72 h; 10 nM
Measured percent inhibition of viability accompanies every entry in the list below.
Give your result in % as a bare value.

Answered cases to consult:
{"columns": ["molecule", "u", "percent inhibition of viability"],
 "data": [
  ["CC(C)(C)c1cnc(CSc2cnc(NC(=O)C3CCNCC3)s2)o1 [SNS-032] (max concentration tested 10000 nM)", "%", -9.83],
  ["COCC(=O)NC/C=C/c1ccc2ncnc(Nc3ccc(Oc4ccc(C)nc4)c(C)c3)c2c1 (max concentration tested 10000 nM)", "%", -6.34]
]}

Now let's try a different one.
Ask: Please look up its percent inhibition of viability: CC(=O)O[C@H]1C(=O)[C@@]2(C)[C@H]([C@H](OC(=O)c3ccccc3)[C@]3(O)C[C@H](OC(=O)[C@H](O)[C@@H](NC(=O)c4ccccc4)c4ccccc4)C(C)=C1C3(C)C)[C@]1(OC(C)=O)CO[C@@H]1C[C@@H]2O [Paclitaxel] (max concentration tested 1000 nM)
Result: -1.12

###

system: YT (IL-2 2.5 ng/mL); experiment: drug sensitivity score (DSS) (DSS units); higher = more sensitive; extreme values may be limits of the assay; details: 72 h
measure: drug sensitivity score
Number only, please.

Answered cases to consult:
{"columns": ["compound", "measure", "data-value"],
 "data": [
  ["Cn1cnc2c(F)c(Nc3ccc(Br)cc3F)c(C(=O)NOCCO)cc21 [Binimetinib] (max concentration tested 1000 nM)", "drug sensitivity score", 0.31],
  ["COc1cc2c(Oc3ccc4[nH]c(C)cc4c3F)ncnc2cc1OCCCN1CCCC1 [Cediranib] (max concentration tested 1000 nM)", "drug sensitivity score", 0],
  ["COc1cc2c(NC3CCN(C(C)C)CC3)nc(N3CCC(F)(F)CC3)nc2cc1OCCCN1CCCC1 [UNC0642] (max concentration tested 10000 nM)", "drug sensitivity score", 4.75],
  ["CS(=O)(=O)c1ccc(-c2cnc(N)c(C(=O)Nc3ccccc3)n2)cc1 [VE-821] (max concentration tested 10000 nM)", "drug sensitivity score", 0],
  ["CC(C)(C)c1cnc(CSc2cnc(NC(=O)C3CCNCC3)s2)o1 [SNS-032] (max concentration tested 10000 nM)", "drug sensitivity score", 24.9]
]}

Ask: Please provide the recorded drug sensitivity score for Cn1cc(-c2cnn3c(N)c(Br)c([C@@H]4CCCNC4)nc23)cn1 [MK-8776] (max concentration tested 2500 nM) , tested on YT (IL-2 2.5 ng/mL).
Result: 0

###

Measured percent inhibition of viability accompanies every entry in the list below.
tested on: IMC-1 (IL-2 20 ng/mL); assay: percent inhibition of viability; higher = more inhibition; conditions: 72 h; 100 nM
Give your result in % as a bare value.

{"columns": ["molecule", "percent inhibition of viability / %"],
 "data": [
  ["Nc1nc2[nH]cnc2c(=S)[nH]1 [Thioguanine] (max concentration tested 10000 nM)", -1.21],
  ["N#Cc1ccc(C(c2ccc(C#N)cc2)n2cncn2)cc1 [Letrozole] (max concentration tested 10000 nM)", -1.74]
]}

Now let's try a different one.
Ask: Please look up its percent inhibition of viability: O=C(Nc1cccc(Nc2ncc(Br)c(NCCc3cnc[nH]3)n2)c1)N1CCCC1 [BX-912] (max concentration tested 10000 nM)
Result: 1.1

###

test system: IMC-1 (IL-2 20 ng/mL); test: drug sensitivity score (DSS) (DSS units); higher = more sensitive; extreme values may be limits of the assay; conditions: 72 h
measure: drug sensitivity score
Number only, please.

{"columns": ["compound", "data-value"],
 "data": [
  ["O=C(/C=C/c1cccc(S(=O)(=O)Nc2ccccc2)c1)NO [Belinostat] (max concentration tested 10000 nM)", 21.2]
]}

Now let's try a different one.
Ask: Please provide the recorded drug sensitivity score for COc1cc2c(NC3CCN(C(C)C)CC3)nc(N3CCC(F)(F)CC3)nc2cc1OCCCN1CCCC1 [UNC0642] (max concentration tested 10000 nM) , tested on IMC-1 (IL-2 20 ng/mL).
Result: 6.92

###

Measured percent inhibition of viability accompanies every entry in the list below.
test system: SNK-6 (IL-2 2.5 ng/mL); assay: percent inhibition of viability; higher = more inhibition; conditions: 72 h; 250 nM
Give your result in % as a bare value.

Answered cases to consult:
{"columns": ["compound", "u", "percent inhibition of viability"],
 "data": [
  ["Cn1cc(-c2cnn3c(N)c(Br)c([C@@H]4CCCNC4)nc23)cn1 [MK-8776] (max concentration tested 2500 nM)", "%", 5.96],
  ["CCN1CCN(Cc2ccc(Nc3ncc(F)c(-c4cc(F)c5nc(C)n(C(C)C)c5c4)n3)nc2)CC1 [Abemaciclib] (max concentration tested 2500 nM)", "%", 15.4],
  ["Cc1nc(NC(=O)N2CCC[C@H]2C(N)=O)sc1-c1ccnc(C(C)(C)C(F)(F)F)c1 [Alpelisib] (max concentration tested 2500 nM)", "%", 15.4],
  ["O=C(Nc1ccc(OC(F)(F)F)cc1)c1sccc1NCc1ccnc2ccccc12 [OSI-930] (max concentration tested 2500 nM)", "%", 16.9]
]}

Ask: Please look up its percent inhibition of viability: CCOc1ccn(-c2ccc(F)cc2)c(=O)c1C(=O)Nc1ccc(Oc2ccnc(N)c2Cl)c(F)c1 (max concentration tested 2500 nM)
Result: 18.3

###

Measured percent inhibition of viability accompanies every entry in the list below.
tested on: normal primary NK cells, pool 3 (3 donors) (IL-2 2.5 ng/mL); assay: percent inhibition of viability; higher = more inhibition; settings: 72 h; 1 nM

{"columns": ["compound", "target-or-test-system", "data-value"],
 "data": [
  ["COc1c(C)cnc(Cn2cnc3c(Cl)nc(N)nc32)c1C [BIIB021] (max concentration tested 10000 nM)", "normal primary NK cells, pool 3 (3 donors) (IL-2 2.5 ng/mL)", "-13.8%"]
]}

Ask: Please look up its percent inhibition of viability: CCc1cncnc1N1CCN(Cc2nc3ccc(C(F)(F)F)cc3[nH]2)CC1 (max concentration tested 10000 nM)
Result: -9.93%

Ask: Follow-up entry: COCC(=O)NC/C=C/c1ccc2ncnc(Nc3ccc(Oc4ccc(C)nc4)c(C)c3)c2c1 (max concentration tested 10000 nM)
Result: -5.66%

Ask: Follow-up entry: Oc1ncnc2[nH]ncc12 [Allopurinol] (max concentration tested 10000 nM)
Result: -2.7%

###

system: normal primary NK cells, pool 1 (3 donors) (IL-2 2.5 ng/mL); assay: percent inhibition of viability; higher = more inhibition; details: 72 h; 10 nM
measure: percent inhibition of viability (%)
Give your result in % as a bare value.

{"columns": ["compound", "data-value"],
 "data": [
  ["Nc1nc2[nH]cnc2c(=S)[nH]1 [Thioguanine] (max concentration tested 10000 nM)", 12.9],
  ["N#CC[C@H](C1CCCC1)n1cc(-c2ncnc3[nH]ccc23)cn1 [Ruxolitinib] (max concentration tested 10000 nM)", 6.3],
  ["O=C(Nc1cccnc1)N1CCC(Cc2cccc(Oc3ccc(C(F)(F)F)cn3)c2)CC1 [PF-3845] (max concentration tested 10000 nM)", -8.73],
  ["N#Cc1ccc(C(c2ccc(C#N)cc2)n2cncn2)cc1 [Letrozole] (max concentration tested 10000 nM)", 0.24],
  ["Oc1ncnc2[nH]ncc12 [Allopurinol] (max concentration tested 10000 nM)", 15.7],
  ["C#Cc1cccc(Nc2ncnc3cc(OC)c(OCCCCCCC(=O)NO)cc23)c1 [CUDC-101] (max concentration tested 10000 nM)", -4.06]
]}

Ask: Please look up its percent inhibition of viability: CN1CCN(c2ccc3nc(-c4c(N)c5c(F)cccc5[nH]c4=O)[nH]c3c2)CC1 [Dovitinib] (max concentration tested 10000 nM)
Result: -11.3
